Reference source for all entries: PubChem BioAssay (NCI)

- Test system: LOX IMVI melanoma
- method.description: NCI-60 one-dose screen, 48 h (100 = growth as untreated, 0 = no growth, -100 = all killed)
- recorded.conditions: 10 µM unless noted
Compounds without any hit were thinned out: in the full panel of roughly 83,000, 20% have a hit.

[
  {
    "molecule": "COc1ccc(/C=c2/c(=O)[nH]c3nc4sc(C)c(C)c4c(=O)n23)cc1",
    "growth [%]": 91.1
  },
  {
    "molecule": "COC(/C=C/c1ccc([N+](=O)[O-])cc1)OC",
    "growth [%]": 8.46
  },
  {
    "molecule": "CCCCCC(=O)N(CCCC)CCCC",
    "growth [%]": 110
  },
  {
    "molecule": "CC1(C)CC(=O)C(c2c(-c3ccccc3)[nH]c3[nH]c(=S)[nH]c(=O)c23)=C(O)C1",
    "growth [%]": 111
  },
  {
    "molecule": "CCN(CC)CCCC(C)N/C(=C1\\C(=O)NC(=O)\\C1=C(/NC(C)CCCN(CC)CC)c1cccc(OC)c1)c1cccc(OC)c1 (stereo not drawn)",
    "growth [%]": -68.5
  },
  {
    "molecule": "COc1cc(NC(N)=NCC(C)(C)COc2ccc(C(F)(F)F)cc2)cnc1C#N",
    "growth [%]": 67.1
  },
  {
    "molecule": "Cc1cc(Nc2nc(N3CCNCC3)nc3ccccc23)n[nH]1",
    "growth [%]": 88.6
  },
  {
    "molecule": "c1ccc(CSc2ncnc3nc[nH]c23)nc1",
    "growth [%]": 106
  },
  {
    "molecule": "COc1ccc(S(=O)(=O)NCCCNc2nccc(-c3c(-c4cccc(N)c4)nc4sccn34)n2)cc1",
    "growth [%]": 96.4
  },
  {
    "molecule": "CC(=O)O[C@H]1CC[C@]2(C)[C@H]3CC[C@@H]4[C@H]5[C@H](C(C)C)CC[C@]5(C(=O)OCC(CO)(CO)N=C(N)N)CC[C@@]4(C)[C@]3(C)CC[C@H]2C1(C)C",
    "growth [%]": -48.8
  },
  {
    "molecule": "CC1CN(C(C)C)C(=S)N(c2ccccc2)C1=O (stereo not drawn)",
    "growth [%]": 93.4
  },
  {
    "molecule": "O=C(CCCN1CCOCC1)Nc1ccc(Cn2nnc3c2C(=O)c2nnn(Cc4ccc(NC(=O)CCCN5CCOCC5)cc4)c2C3=O)cc1",
    "growth [%]": -5.71
  },
  {
    "molecule": "CN[C@@]12CC3(C=CC(=O)C=C3)O[C@]1(Cc1ccc(OC)cc1)N(C)C(=O)N2",
    "growth [%]": 10.3
  },
  {
    "molecule": "O=C(O)c1ccc(=O)[nH]n1",
    "growth [%]": 96.2
  },
  {
    "molecule": "CC(C)n1cc2c(N)ncnc2n1",
    "growth [%]": 108
  },
  {
    "molecule": "CS(=O)(=O)c1c(Nc2ccccc2)n[nH]c1N",
    "growth [%]": 89.8
  },
  {
    "molecule": "CC(=O)CC(C)(C)c1ccc(Cl)cc1",
    "growth [%]": 97.3
  },
  {
    "molecule": "COc1ccc(CNc2nccnn2)cc1",
    "growth [%]": 105
  },
  {
    "molecule": "O=C(CN1CCN(c2cc3c(cc2F)c(=O)c(C(=O)O)cn3C2CC2)CC1)Nc1nc(-c2ccccc2)cs1",
    "growth [%]": 36.5
  },
  {
    "molecule": "O=[N+]([O-])c1cccc(-c2nc3sccn3c2-c2ccnc(NCCNS(=O)(=O)c3ccc(C(F)(F)F)cc3)n2)c1",
    "growth [%]": 30.4
  },
  {
    "molecule": "CCCCCCCCSC1=CC(=O)C(OC)=C(OC)C1=O",
    "growth [%]": -48.7
  },
  {
    "molecule": "O=C(O)c1ccc2c(c1Sc1ccccc1)C(=O)c1ccccc1C2=O",
    "growth [%]": 89.5
  },
  {
    "molecule": "O=C1c2ccccc2-c2nccc3cc(Cl)nc1c23",
    "growth [%]": -22.5
  },
  {
    "molecule": "CCNS(=O)(=O)c1ncnc2nc[nH]c12",
    "growth [%]": 22
  },
  {
    "molecule": "Cc1cc(Cl)ccc1Nc1nc(C(F)(F)F)ccc1C(=O)N/N=C/c1ccc(F)cc1",
    "growth [%]": 0.251
  },
  {
    "molecule": "COCCOC(=O)C1=C(C)NC(=S)NC1c1ccc2c(c1)OCO2 (stereo not drawn)",
    "growth [%]": 101
  },
  {
    "molecule": "CCCCNc1ccc2c3c1cccc3c(=O)n1c3ccccc3nc21",
    "growth [%]": 75.9
  },
  {
    "molecule": "COc1c(Cl)cc(Cl)cc1Cl",
    "growth [%]": 107
  }
]
